System: HACAT
ASSAY TEXT: qHTS assay to identify novel small-molecules to repurpose for Merkel cell carcinoma treatment (AID 1296009); note: nearly all actives have a fitted effect of over 60% in size
COND: MCC and control cell lines, CellTiter-Glo viability, 72 h; at 44.8 µM (top of the series) unless noted
Inconclusive results are not listed. Active and inactive are the calls of the source. Calls come from the whole dose curve; as a rule, active = well fitted inhibition curve with a large enough effect; inconclusive = small, poorly fitted or top-dose-only effect; inactive = flat fitted curve, though single readings scatter. Where a SMILES comes first, the peptide text is derived from it. The star is where a group is joined. AMC = Cc1cc(=O)oc2cc(N*)ccc12; Cbz = O=C(OCc1ccccc1)*
MEASUREMENT LABEL: outcome

(Q) State measured outcome of the compound CC(O)C/C=C/C=C/C(=O)OC1C=C2COC(=O)C2(O)C2(C)CCCC(C)(C)C12 (stereo not given) with HACAT.
(A) inactive

(Q) State measured outcome of the compound Cc1cc(=O)oc2cc(NC(=O)[C@H](CCC(=O)O)NC(=O)[C@H](CC(C)C)NC(=O)[C@H](CC(C)C)NC(=O)OCc3ccccc3)ccc12 (Cbz-Leu-Leu-Glu-{AMC}) with HACAT.
(A) inactive

(Q) State measured outcome of the compound C[C@H]1[C@H](C)C[C@@H](C(=O)O)C2CC[C@]3(C)C(=CC[C@@H]4[C@@]5(C)CC[C@H](O)C(C)(C)[C@@H]5CC[C@]43C)[C@@H]21 (stereo not given in full) with HACAT.
(A) inactive

###

Tested on: OV90
ASSAY TEXT: Primary qHTS to identify gynecologic anti-cancer compounds using libraries of approved drugs and bioactive compounds (AID 1345084); note: % is set by controls: 0 for no effect and ±100 for the full control effect; nearly all actives have a fitted effect of over 55% in size
COND: Gynecologic cancer cell panel viability, ATPlite luminescence, 48 h; series mostly up to 57.5 µM
Inconclusive results are not listed. Active and inactive are the calls of the source. Calls come from the whole dose curve; as a rule, active = well fitted cell-killing curve with a large enough effect; inconclusive = small, poorly fitted or top-dose-only effect, or effect the other way; inactive = flat fitted curve, though single readings scatter.
MEASUREMENT LABEL: activity change, negative = cytotoxicity

Completed entries (count: 6):
(Q) State, in one line, measured activity change, negative = cytotoxicity of CC(C)NC(=O)c1ccc(C#Cc2ccncc2)cn1
(A) inactive

(Q) State, in one line, measured activity change, negative = cytotoxicity of COC(=O)[C@@H](NC(=O)[C@H](CC(C)C)NC(=O)N(Cc1ccccc1)C[C@@H](O)[C@H](Cc1ccccc1)NC(=O)OC(C)(C)C)C(C)C
(A) -5.58% [at 11.6 µM] (inactive)

(Q) State, in one line, measured activity change, negative = cytotoxicity of COC(=O)[C@H](Cc1cccc(C(=N)N)c1)[C@@H](C)NC(=O)c1ccc(-c2cc[n+]([O-])cc2)cc1
(A) inactive

(Q) State, in one line, measured activity change, negative = cytotoxicity of C/C(=C\CCC1(C)C2CC3C(C2)C31C)C(=O)O (configuration not stated)
(A) inactive

(Q) State, in one line, measured activity change, negative = cytotoxicity of CC(C)C(O)(CO)CCO[C@@H]1O[C@H](CO[C@H]2OC[C@](O)(CO)[C@H]2O)[C@@H](O)[C@H](O)[C@H]1O (some centres not stated)
(A) inactive

(Q) State, in one line, measured activity change, negative = cytotoxicity of C/C=C1/[C@H](O[C@@H]2O[C@H](CO)[C@@H](O)[C@H](O)[C@H]2O)OC=C(C(=O)OC)[C@H]1CC(=O)OCCc1ccc(OC(=O)C[C@@H]2C(C(=O)OC)=CO[C@@H](O[C@@H]3O[C@H](CO)[C@@H](O)[C@H](O)[C@H]3O)/C2=C/C)cc1
(A) 7.47% [at 11.6 µM] (inactive)

---
(Q) State, in one line, measured activity change, negative = cytotoxicity of CC1(C)CCC[C@@]2(C)[C@H]1[C@H](O)C=C(CO)[C@]2(O)CO
(A) inactive

###

Potency values by entry
MEASURED ON: Guanidinoacetate N-methyltransferase (Homo sapiens)
ASSAY TEXT: Confirmatory Screen for Target Class Profiling of Small Molecule Inhibitors of Methyltransferases (AID 1745852); note: potency is the fitted concentration of half-maximal effect
COND: MTase-Glo luminescence, SAH detection, recombinant enzyme
Activity calls are given as the source filed them. The call rests on the fitted dose curve.

(Q) State measured Potency of the compound CC1CCCCCCCc2cc(O)cc(O)c2C(=O)O1 (centres undefined) with Guanidinoacetate N-methyltransferase (Homo sapiens).
(A) 30.4 µM (active)

(Q) State measured Potency of the compound C=Cc1cc2oc(-c3ccc(O)c(F)c3)nc2cc1O with Guanidinoacetate N-methyltransferase (Homo sapiens).
(A) 30.4 µM (active)

(Q) State measured Potency of the compound Nc1ncnc2c1ncn2[C@H]1O[C@@H](C(=O)N2CCN(CC(=O)Nc3cccc4c3CNC4=O)CC2)[C@H](O)[C@@H]1O with Guanidinoacetate N-methyltransferase (Homo sapiens).
(A) 21.5 µM (active)

Please examine the following record next.
(Q) State measured Potency of the compound N#Cc1cccc(-c2c[nH]c3ncnc(N4CCOCC4)c23)c1 with Guanidinoacetate N-methyltransferase (Homo sapiens).
(A) 24.1 µM (active)

###

Test system: Tov-21-G
ASSAY TEXT: Primary qHTS to identify gynecologic anti-cancer compounds using libraries of approved drugs and bioactive compounds (AID 1345084); note: % is set by controls: 0 for no effect and ±100 for the full control effect; nearly all actives have a fitted effect of over 55% in size
COND: Gynecologic cancer cell panel viability, ATPlite luminescence, 48 h; series mostly up to 57.5 µM
Inconclusive results are not listed. The source made the active and inactive calls. Calls follow the shape of the dose curve; as a rule, active = well fitted cell-killing curve with a large enough effect; inconclusive = small, poorly fitted or top-dose-only effect, or effect the other way; inactive = flat fitted curve, though single readings scatter.
MEASUREMENT LABEL: activity change, negative = cytotoxicity

Completed entries (count: 5):
(Q) State, in one line, measured activity change, negative = cytotoxicity of CC1=CC(=O)C(=C(C)C)CC2C(C)(O)CCC12O (stereo not drawn)
(A) inactive

(Q) State, in one line, measured activity change, negative = cytotoxicity of CCc1nn(CCO)c(CC)c1Oc1cc(C#N)cc(C#N)c1
(A) inactive

(Q) State, in one line, measured activity change, negative = cytotoxicity of Nc1nc(COC(=O)c2ccc([N+](=O)[O-])cc2)nc(Nc2ccccc2)n1
(A) inactive

(Q) State, in one line, measured activity change, negative = cytotoxicity of O=C(OCC(O)CO[C@@H]1O[C@H](C(=O)O)[C@@H](O)[C@H](O)[C@H]1O)c1ccccc1 (stereo partly drawn)
(A) inactive

(Q) State, in one line, measured activity change, negative = cytotoxicity of CC(=O)OCC1OC(OC2COC(OC3COC(OC4C(OC5C(CO)OC(OC6CCC7(C)C(CCC8(C)C7CC=C7C9CC(C)(C)CCC9(C(=O)OC9OC(CO)C(O)C(O)C9OC9OCC(OC%10OCC(O)(CO)C%10O)C(O)C9O)C(O)CC78C)C6(C)C)C(O)C5O)OCC(O)C4O)C(O)C3O)C(O)C2O)C(OC(=O)/C=C/c2ccccc2)C(O)C1OC(C)=O (stereo not drawn)
(A) -3.47% [at 6.55 µM] (inactive)

---
(Q) State, in one line, measured activity change, negative = cytotoxicity of Cc1occc(=O)c1O[C@@H]1O[C@H](CO)[C@@H](O)[C@H](O)[C@H]1O
(A) inactive

(Q) State, in one line, measured activity change, negative = cytotoxicity of C/C=C(\C)C(=O)OC[C@H]1O[C@@H](O[C@H]2[C@@H](O[C@H]3O[C@H](COC(=O)/C(C)=C/C)[C@@H](O)[C@H](O)[C@H]3O[C@@H]3O[C@H](CO)[C@@H](O)[C@H](OC(=O)/C(C)=C/C)[C@H]3O)O[C@H](COC(=O)/C(C)=C/C)[C@@H](O)[C@@H]2O)[C@H](O)[C@@H](O)[C@@H]1O
(A) 2.42% [at 11.6 µM] (inactive)

(Q) State, in one line, measured activity change, negative = cytotoxicity of COC(=O)[C@H](O)[C@H]1C(C)(C)[C@H](OC(C)=O)[C@@]2(O)C(=O)[C@]1(C)C1CC[C@]3(C)C(CC(=O)O[C@H]3c3ccoc3)[C@]13O[C@@H]32 (stereo partly drawn)
(A) inactive

(Q) State, in one line, measured activity change, negative = cytotoxicity of C/C=C/C=C/C=C/C(=O)O[C@@H]1C=C(CO)[C@](O)(CO)[C@@]2(C)CCCC(C)(C)[C@H]12
(A) inactive

(Q) State, in one line, measured activity change, negative = cytotoxicity of CC1C2=CC(=O)OC2(O)CC2C1C(O)CC1C(C)(CO)CCCC21C (stereo not drawn)
(A) inactive

(Q) State, in one line, measured activity change, negative = cytotoxicity of CC1(C)CC[C@]2(C(=O)O)CC[C@]3(C)C(=CCC4[C@@]5(C)CC[C@H](O[C@@H]6O[C@H](C(=O)O)[C@@H](O)[C@H](O[C@@H]7O[C@H](CO)[C@H](O)[C@H](O)[C@H]7O)[C@H]6O[C@@H]6O[C@H](CO)[C@@H](O)[C@H](O)[C@H]6O)C(C)(C)C5CC[C@]43C)[C@@H]2C1 (stereo partly drawn)
(A) -6.57% [at 6.55 µM] (inactive)

(Q) State, in one line, measured activity change, negative = cytotoxicity of CC1(O)CC(O)C2C(C(=O)O)=COC(OC3OC(CO)C(O)C(O)C3OC(=O)/C=C/c3ccc(O)cc3)C21 (stereo not drawn)
(A) inactive

(Q) State, in one line, measured activity change, negative = cytotoxicity of C=C1C(OC(C)=O)CCC2(C)CCC(C(C)(C)O)CC12 (stereo not drawn)
(A) inactive

The reported numbers originate from PubChem BioAssay (NCATS).
